biological target: human ether-à-go-go-related gene (hERG) potassium channel (human); test: primary screen, population patch clamp on CHO cells stably expressing hERG; higher = less effect of the substance
The campaign covered roughly 310,000 compounds. About 14,000 (4.5%) showed an effect of 50% or more. The effect is printed as a negative number. What follows is part of a selection rich in strong results, with near analogues and random picks from the rest.
As shown below, each of these compounds has a reported hERG current change (%, negative = inhibition) at 10uM value.
Field: numeric (%). Do not append units.

Below, 2 compounds whose answers are already recorded.
compound	value.measured
C=CCc1c(C)nc(C)nc1N/N=C/c1ccc(F)cc1	-30.9
O=S(=O)(c1ccc(F)c(F)c1)N1CCN(Cc2ccc3c(c2)OCO3)CC1	-51.4

So the reported hERG current change (%, negative = inhibition) at 10uM for Cc1ccc(NC(=S)N(CCN(C)C)C(C)c2ccco2)cc1C (stereo not shown) , on human ether-à-go-go-related gene (hERG) potassium channel (human), turned out to be -44.3

So the reported hERG current change (%, negative = inhibition) at 10uM for C=CCc1c(C)nc(C)nc1N/N=C/c1ccccc1 , on human ether-à-go-go-related gene (hERG) potassium channel (human), turned out to be -19.2

So the reported hERG current change (%, negative = inhibition) at 10uM for COc1cccc(N/N=C/c2cccc(Br)c2O)c1 , on human ether-à-go-go-related gene (hERG) potassium channel (human), turned out to be -11.1

So the reported hERG current change (%, negative = inhibition) at 10uM for O=C1CCc2cc(S(=O)(=O)NCCCC(=O)N3CCN(Cc4ccc5c(c4)OCO5)CC3)ccc2N1 , on human ether-à-go-go-related gene (hERG) potassium channel (human), turned out to be -0.149

----------
biological target: human ether-à-go-go-related gene (hERG) potassium channel (human, UniProt Q12809); experiment: primary screen, population patch clamp on CHO cells stably expressing hERG; higher = less effect of the substance
Sequence (Q12809 whole entry, looked up): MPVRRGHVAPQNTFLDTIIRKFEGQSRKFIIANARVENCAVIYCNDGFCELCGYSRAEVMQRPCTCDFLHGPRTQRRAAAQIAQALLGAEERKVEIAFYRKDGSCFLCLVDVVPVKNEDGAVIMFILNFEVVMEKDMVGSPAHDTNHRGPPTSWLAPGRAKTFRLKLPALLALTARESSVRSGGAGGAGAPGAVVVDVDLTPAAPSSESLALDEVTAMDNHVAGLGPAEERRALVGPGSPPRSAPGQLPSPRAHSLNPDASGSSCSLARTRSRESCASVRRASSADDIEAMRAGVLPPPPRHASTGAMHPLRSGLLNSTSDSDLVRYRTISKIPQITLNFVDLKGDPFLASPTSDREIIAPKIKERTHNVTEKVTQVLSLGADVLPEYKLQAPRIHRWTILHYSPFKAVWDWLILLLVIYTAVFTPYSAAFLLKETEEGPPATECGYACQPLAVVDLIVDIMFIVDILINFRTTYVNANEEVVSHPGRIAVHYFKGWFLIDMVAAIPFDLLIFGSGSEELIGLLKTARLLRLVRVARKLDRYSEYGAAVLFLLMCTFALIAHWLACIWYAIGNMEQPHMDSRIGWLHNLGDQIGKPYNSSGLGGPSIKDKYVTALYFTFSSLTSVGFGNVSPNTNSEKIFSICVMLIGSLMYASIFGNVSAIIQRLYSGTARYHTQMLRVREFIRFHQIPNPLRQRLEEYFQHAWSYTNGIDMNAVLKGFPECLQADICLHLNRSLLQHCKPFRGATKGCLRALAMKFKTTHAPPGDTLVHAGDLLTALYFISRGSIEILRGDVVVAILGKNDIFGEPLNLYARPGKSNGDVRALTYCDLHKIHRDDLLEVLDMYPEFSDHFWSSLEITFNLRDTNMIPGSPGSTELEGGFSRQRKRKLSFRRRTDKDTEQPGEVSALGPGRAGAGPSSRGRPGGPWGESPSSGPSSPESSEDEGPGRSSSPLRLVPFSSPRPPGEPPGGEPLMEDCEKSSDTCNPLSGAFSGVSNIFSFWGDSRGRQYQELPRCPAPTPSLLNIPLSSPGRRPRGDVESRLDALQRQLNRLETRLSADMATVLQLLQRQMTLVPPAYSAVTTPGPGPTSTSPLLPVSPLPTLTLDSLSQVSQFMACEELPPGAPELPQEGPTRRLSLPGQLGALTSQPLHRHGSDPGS
The whole screen tested about 310,000 compounds, of which about 14,000 (4.5%) showed an effect of 50% or more. The effect is printed as a negative number. Shown is part of a subset that was picked to be rich in strong results.
observed.property: hERG current change (%, negative = inhibition) at 10uM (%)
Field: numeric (%). Do not append units.

compound	unit.descriptor	value.measured
CC(=O)c1ccc(NC(=O)CSc2nc(N3CCOCC3)nc(N3CCOCC3)n2)cc1	%	-7.67
CCCn1nc(Oc2nc(NCC)nc(NC(C)C)n2)ccc1=O	%	1.01
Cc1ccc(-n2c(C)cc(/C=N/NC(=O)c3ccncc3)c2C)cc1C	%	17.3
O=C(O)COc1ccccc1/C=C1\SC(=S)N(c2cccnc2)C1=O	%	-10.1

From here, focus on the item given below.
In plain terms, CC1CN(C(=O)CCNC(=O)c2ccc(Br)cc2)CC(C)O1 (centres unmarked) has a documented hERG current change (%, negative = inhibition) at 10uM of -4.12

----------
molecular target: human ether-à-go-go-related gene (hERG) potassium channel (human, UniProt Q12809); assay: primary screen, population patch clamp on CHO cells stably expressing hERG; higher = less effect of the substance;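 also: peak tail current of the secondary pulse compared with the same well before compound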
Out of some 310,000 compounds screened, about 14,000 (4.5%) showed an effect of 50% or more. Effects have a minus sign here. This excerpt belongs to a sample that is enriched for strong results.
As shown below, each of these compounds has a reported hERG current change (%, negative = inhibition) at 10uM value.
Field: numeric (%). Do not append units.

Below, 3 compounds whose answers are already recorded.
molecular.string	value.measured
COc1cccc(N2CCN(CC(=O)Nc3ccc(S(=O)(=O)N4CCCCCC4)cc3)CC2)c1	-21.9
CCOC(=O)c1ccc(NC(=O)N2CCN(Cc3ccccc3)CC2)cc1	-11.1
COc1ccc(NC(=O)CN2CCN(c3c(C)cc(C)cc3C)CC2)cc1	3.97

So the reported hERG current change (%, negative = inhibition) at 10uM for COC(=O)c1ccc(NC(=O)CCN2CCN(CCC(=O)Nc3ccc(C(=O)OC)cc3)CC2)cc1 , on human ether-à-go-go-related gene (hERG) potassium channel (human, UniProt Q12809), turned out to be -15.4

So the reported hERG current change (%, negative = inhibition) at 10uM for COc1ccc(NC(=O)CN2CCN(c3c(C)cccc3C)CC2)cc1 , on human ether-à-go-go-related gene (hERG) potassium channel (human, UniProt Q12809), turned out to be -24.4

----------
target: human ether-à-go-go-related gene (hERG) potassium channel (human, UniProt Q12809); assay: primary screen, population patch clamp on CHO cells stably expressing hERG; higher = less effect of the substance;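 also: peak tail current of the secondary pulse compared with the same well before compound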
Hit rate of the full screen: of about 310,000 compounds, about 14,000 (4.5%) showed an effect of 50% or more. Effects have a minus sign here. The sample as a whole holds a higher share of strong results than the screen did.
The label depends only on hERG current change (%, negative = inhibition) at 10uM: fulfilled if it is at least -10%, not fulfilled if it is smaller.

compound	class
COc1cc2c(cc1OC)CN(CC(=O)Nc1ccc(Cl)cc1Cl)CC2	not fulfilled

Data request: Hi team, for Cc1nn(-c2ccccc2)c(N2CCCC2)c1/C=C1\N=C(c2ccccc2)OC1=O , is the recorded hERG current change (%, negative = inhibition) at 10uM at or above -10%?
Data returned: fulfilled

Data request: Hi team, for Cc1coc2cc3oc(=O)c(CCC(=O)N4CCC(C(=O)O)(c5ccccc5)CC4)c(C)c3cc12 , is the recorded hERG current change (%, negative = inhibition) at 10uM at or above -10%?
Data returned: fulfilled

Data request: Hi team, for Cc1ccccc1C(=O)NC(=S)N(C)C1CCCCC1 , is the recorded hERG current change (%, negative = inhibition) at 10uM at or above -10%?
Data returned: fulfilled

Data request: Hi team, for O=C(CSc1ccccc1)N1CCCC(N2CCN(c3ccccc3)CC2)C1 (stereo not drawn) , is the recorded hERG current change (%, negative = inhibition) at 10uM at or above -10%?
Data returned: not fulfilled

Data request: Hi team, for Cl.O=C(CN1CCCC1)Nc1ccc(Br)cc1 , is the recorded hERG current change (%, negative = inhibition) at 10uM at or above -10%?
Data returned: fulfilled

Data request: Hi team, for O=C(CN1CCN(S(=O)(=O)N2CCCCC2)CC1)Nc1ccc(Br)cc1 , is the recorded hERG current change (%, negative = inhibition) at 10uM at or above -10%?
Data returned: not fulfilled

Data request: Hi team, for O=C(CN1CCN(S(=O)(=O)N2CCCCCC2)CC1)Nc1ccc(F)cc1 , is the recorded hERG current change (%, negative = inhibition) at 10uM at or above -10%?
Data returned: not fulfilled

Data request: Hi team, for O=C(CSc1ccccc1)N1CCCC(N2CCN(c3ccc(F)cc3)CC2)C1 (stereo not drawn) , is the recorded hERG current change (%, negative = inhibition) at 10uM at or above -10%?
Data returned: not fulfilled

----------
target: human ether-à-go-go-related gene (hERG) potassium channel (human); experiment: primary screen, population patch clamp on CHO cells stably expressing hERG; higher = less effect of the substance;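 also: peak tail current of the secondary pulse compared with the same well before compound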
The whole screen tested about 310,000 compounds, of which about 14,000 (4.5%) showed an effect of 50% or more. Effects have a minus sign here. Shown is part of a subset that was picked to be rich in strong results.
observed.property: hERG current change (%, negative = inhibition) at 10uM (%)
Field: numeric (%). Do not append units.

molecular.string	value.measured
CC#CCCCC(=O)Nc1ccc(C(=O)O)cc1	1.36
O=C(Nc1ccccc1)c1cc2ccccc2o1	-7.55
CCC(=O)Nc1ccc(NC(=O)c2cc3ccccc3o2)cc1	-2.45
CC/C(=C\c1oc2cc3ccccc3cc2[n+]1CC)Nc1ccccc1.[I-]	-78.1
COc1ccc(S(=O)(=O)NC(C)(C)C)cc1-c1nnc2c3ccccc3c(C)nn12	-5.05

In plain terms, CCCN(CCC)C(=O)CCSCCC(=O)N(CCC)CCC has a documented hERG current change (%, negative = inhibition) at 10uM of 14.5

----------
As shown below, each of these molecules has a reported hERG current change (%, negative = inhibition) at 10uM value.
target: human ether-à-go-go-related gene (hERG) potassium channel (human, UniProt Q12809); assay: primary screen, population patch clamp on CHO cells stably expressing hERG; higher = less effect of the substance;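 also: peak tail current of the secondary pulse compared with the same well before compound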
In all, about 310,000 compounds went through this assay and about 14,000 (4.5%) showed an effect of 50% or more. The effect is printed as a negative number. Many of the other results were omitted from the sample, so strong results are more common in it than they were.
Field: numeric (%). Do not append units.

molecular.string	value.measured
CCc1ccccc1NC(=O)C1CCN(C(=O)N2CCOc3ccccc32)CC1	1.77
Cc1ccccc1NC(=O)C1CCN(C(=O)N2CCOc3ccccc32)CC1	-8.57
COC(=O)c1ccccc1NC(=O)C1CCN(C(=O)N2CCOc3ccccc32)CC1	-59.6
CC(=O)N1CCN(C(=O)c2cc(-c3cccc4ccccc34)nc3ccccc23)CC1	-28.9

In plain terms, O=C(c1cc(-c2ccccc2Cl)nc2ccccc12)N1CCC1 has a documented hERG current change (%, negative = inhibition) at 10uM of -12.4
